Molecular target: native PKCβI (Mus musculus, UniProt P68404)
Sequence (P68404 whole entry): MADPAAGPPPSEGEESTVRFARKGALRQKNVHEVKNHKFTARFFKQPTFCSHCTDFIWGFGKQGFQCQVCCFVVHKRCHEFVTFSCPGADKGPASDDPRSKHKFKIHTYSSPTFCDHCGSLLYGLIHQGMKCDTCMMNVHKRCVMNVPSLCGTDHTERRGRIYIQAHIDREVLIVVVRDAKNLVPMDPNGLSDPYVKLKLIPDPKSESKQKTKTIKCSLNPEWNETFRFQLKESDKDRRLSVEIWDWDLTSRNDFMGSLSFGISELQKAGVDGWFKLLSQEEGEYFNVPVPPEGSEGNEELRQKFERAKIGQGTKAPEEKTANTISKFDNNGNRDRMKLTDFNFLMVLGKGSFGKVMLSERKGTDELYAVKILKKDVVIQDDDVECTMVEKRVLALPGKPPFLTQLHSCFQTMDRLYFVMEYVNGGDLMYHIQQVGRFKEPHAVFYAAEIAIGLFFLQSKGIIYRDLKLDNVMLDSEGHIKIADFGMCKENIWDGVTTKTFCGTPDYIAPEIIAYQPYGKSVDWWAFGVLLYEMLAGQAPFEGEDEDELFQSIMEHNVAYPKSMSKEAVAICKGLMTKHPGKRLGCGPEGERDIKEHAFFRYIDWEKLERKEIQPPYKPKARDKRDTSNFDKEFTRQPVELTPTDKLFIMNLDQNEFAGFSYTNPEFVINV
Assay: cell-based
Type: binding
Details: read-out: Cellular Ki values for native PKCs

# MOLECULE, TARGET ENTITY, UNIT ABBREV, Ki
measured = [
    ("CCCC(=O)O[C@@H]1[C@@H](C)[C@@]2(O)[C@@H](C=C(CO)C[C@]3(O)C(=O)C(C)=C[C@@H]23)[C@@H]2C(C)(C)[C@]12OC(=O)CCC [PDBu, phorbol 12, 13-dibutyrate]", "native PKCβI (Mus musculus, UniProt P68404)", "nM", 15),
]

====

Target: native PKCθ (Mus musculus, UniProt Q02111)
Sequence (Q02111 whole entry): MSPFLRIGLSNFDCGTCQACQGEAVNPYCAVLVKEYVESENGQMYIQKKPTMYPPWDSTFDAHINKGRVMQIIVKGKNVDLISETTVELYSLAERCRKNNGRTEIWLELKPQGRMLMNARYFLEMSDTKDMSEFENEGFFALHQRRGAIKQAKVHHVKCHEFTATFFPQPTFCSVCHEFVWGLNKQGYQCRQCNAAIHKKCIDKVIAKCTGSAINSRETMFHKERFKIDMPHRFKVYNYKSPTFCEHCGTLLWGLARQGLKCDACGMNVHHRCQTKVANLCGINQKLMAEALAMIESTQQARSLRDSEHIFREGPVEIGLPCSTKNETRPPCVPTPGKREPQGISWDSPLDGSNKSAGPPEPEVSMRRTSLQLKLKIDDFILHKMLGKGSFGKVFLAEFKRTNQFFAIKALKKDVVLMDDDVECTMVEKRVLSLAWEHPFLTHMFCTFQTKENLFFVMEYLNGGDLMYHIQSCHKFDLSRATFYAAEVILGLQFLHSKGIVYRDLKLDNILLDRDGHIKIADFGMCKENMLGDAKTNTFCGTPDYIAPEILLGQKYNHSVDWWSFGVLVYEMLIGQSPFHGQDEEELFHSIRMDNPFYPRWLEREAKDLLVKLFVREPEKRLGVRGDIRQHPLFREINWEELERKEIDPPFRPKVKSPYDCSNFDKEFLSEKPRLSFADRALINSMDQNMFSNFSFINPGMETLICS
Assay: cell-based
Format: binding
Settings: read-out: Cellular Ki values for native PKCs
pKi: −log10 of the molar value.

# MOLECULE, TARGET ENTITY, pKi
data = [
    ("CCCC(=O)O[C@@H]1[C@@H](C)[C@@]2(O)[C@@H](C=C(CO)C[C@]3(O)C(=O)C(C)=C[C@@H]23)[C@@H]2C(C)(C)[C@]12OC(=O)CCC [PDBu, phorbol 12, 13-dibutyrate]", "native PKCθ (Mus musculus, UniProt Q02111)", 7.31),
]
